- Target: T1, LTK 001P
- T1 construct: Expressed in Expi293 cells and captured on a Protein A chip through its Fc
- Method Notes: SPR, Biacore 8K; LTK 001P captured on Protein A chip, ligand as analyte, 6 concentrations from 20 nM
Observed Property: binding result

# Binder, Observed Property, Measurement
records = [
    ("Ligand 005P (ligand) DGHHHHHHGSLQDSEVNQEAKPEVKPEVKPETHINLKVSDGSSEIFFKIKKTTPLRRLMEAFAKRQGKEMDSLTFLYDGIEIQADQTPEDLDMEDNDIIEAHREQIGGLEVLFQGPALGRAEAAGLGPSPEQRVEIVPRDLRMKDKFLKHLTGPLYFSPKCSKHFHRLYHNTRDCTIPAYYKRCARLLTRLAVSPVCMEDKQ", "binding result", "binds"),
    ("Ligand 019P (ligand) DGHHHHHHGSLQDSEVNQEAKPEVKPEVKPETHINLKVSDGSSEIFFKIKKTTPLRRLMEAFAKRQGKEMDSLTFLYDGIEIQADQTPEDLDMEDNDIIEAHREQIGGLEVLFQGPFLKHLTGPLYFSPKCSKHFHRLYHNTRDCTIPAYYKRCARLLTRLAVSPVCMEDKQ", "binding result", "binds"),
    ("Ligand 016P (ligand) DGHHHHHHGSLQDSEVNQEAKPEVKPEVKPETHINLKVSDGSSEIFFKIKKTTPLRRLMEAFAKRQGKEMDSLTFLYDGIEIQADQTPEDLDMEDNDIIEAHREQIGGLEVLFQGPLRMKDKFLKHLTGPLYFSPKCSKHFHRLYHNTRDCTIPAYYKRCARLLTRLAVSPVCMEDKQ", "binding result", "binds"),
]
